- study.target: T1, Inhibin A (Homo sapiens (Human), UniProt P05111 233-366; P08476 311-426)
- T1 sequence 1: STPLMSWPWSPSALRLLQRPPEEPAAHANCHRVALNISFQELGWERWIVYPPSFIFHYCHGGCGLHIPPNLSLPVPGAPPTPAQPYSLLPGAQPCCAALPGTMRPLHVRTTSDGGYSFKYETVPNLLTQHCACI
- T1 sequence 2: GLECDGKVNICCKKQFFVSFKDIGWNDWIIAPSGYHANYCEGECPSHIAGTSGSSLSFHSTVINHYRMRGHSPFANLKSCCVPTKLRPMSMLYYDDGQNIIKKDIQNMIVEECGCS
- run.description: ELISA, coated antigen, OD450
Decide by fold-change of OD 450 over negative control (BSA): equal to or exceeding 0.8 fold means met, less means not met.

Past entries and their recorded results:
AB428 (antibody, IgG1, V domains shown) VH: EVQLVESGGGLVQPGGSLRLSCAASGFTSSNHWMSWVRQAPGKGLELVASIGPKGLGTYYPDSVKGRFTISRDNAKNSLYLQMNSLRAEDTAVYYCASIRDYGDKKGGSWFDPWGQGTLVTVSS VL: DIVMTQSPLSLPVTPGEPASISCRSSQSLLHSSGYNFLHWYLQKPGQSPQLLIYMATNRASGVPDRFSGSGSGTDFTLKISRVEAEDVGVYYCVQDLHTLPQFGGGTKVEIK :: met
AB338 (antibody, IgG1, V domains shown) VH: EVQLVESGGGLVQPGGSLRLSCAASGFTASRNYMSWVRQAPGKGLELVASISGSGDYTYYPDSVKGRFTISRDNAKNSLYLQMNSLRAEDTAVYYCARSPRGPRLLGYYYGMDVWGQGTTVTVSS VL: DIVMTQSPLSLPVTPGEPASISCRSSQSLLHSNEKNYLHWYLQKPGQSPQLLIYDASKRASGVPDRFSGSGSGTDFTLKISRVEAEDVGVYYCVQDLHTPFTFGGGTKVEIK :: met

query: Check if fold-change of OD 450 over negative control (BSA) >= 0.8 fold (inclusive). Item: AB326 (antibody, IgG1, V domains shown) VH: QVQLVQSGAEVKKPGASVKVSCKVSGYTFTSSAISWVRQAPGKGLEWMGGIYPGSGHTIYAQKFQGRVTMTEDTSTDTAYMELSSLKSEDTAVYYCAREGDIFVMDVWGLGTAVTVSS VL: DIQMTQSPSSVSASVGDRVTITCRASMDIRNDLAWYQQKPGKAPKLLIYDASKLETGVPSRFSGSGSGTDFTLTISSLQPEDFANYYCQQAKSFPPTFGGGTKVEIK
result: met

query: Entry AB366 (antibody, IgG1, V domains shown) VH: QVQLQESGPGLVKPSQTLSLTCTVSGYSLTDARIGVNWIRQPPGKGLEWIGYINPSGRTDYNPSLKSRVTMSVDTSKNQFSLKVNSVTAADTAVYYCARAGYPDVWGKGTTVTVSS VL: DIQMTQSPSSVSASVGDRVTITCRASQTISRSLAWYQQKPGKAPKLLIYDASSLAGGVPSRFSGSGSGTDFTLTISSLQPEDFANYYCQQYSSYPSLFGGGTKVEIK : is its fold-change of OD 450 over negative control (BSA) no less than 0.8 fold?
result: not met

query: Test whether the binder AB357 (antibody, IgG1, V domains shown) VH: EVQLVQSGAEVKKPGASVKVSCKASGYTFPSHYISWVRQAPGQGLEWMGGMNPITGHTIYAQKLQGRGTMTTDPSTSTAYMELRSLRSDDTAVYYCARDMRYDILPGRSYYYGMDVWGQGTTVTVSS VL: ESALTQPASVSGSPGQSITISCTGTDIRGMSVSWYQQHPGKAPKLMIYEVNQRPSGVSNRFSGSKSGNTASLTISGLQAEDEADYYCAAWDASVAGYVFGGGTKLTVL records fold-change of OD 450 over negative control (BSA) of 0.8 fold or higher.
result: not met

// provenance: patent US20250270304A1
